Target of assay: PcrV of P. aeruginosa strain PA103 (on TTSS-induced bacteria) (Pseudomonas aeruginosa strain PA103); further: test concentration or dose not given here
Measurement notes: cell-based or functional assay
Quantity: cytotox assay (% inhibition), P3X63, PA103 (%)
Answers are plain numbers, in %.

| Binder | Measure unit | Observed |
| --- | --- | --- |
| Nanobody 13F07 (VHH) VHH: EVQLVESGGGLVQAGGSLRLSCAASGNTFSTNPMYWYRQAEGKQRELVASISSRGITNYADSVRGRFSISRDNTKDTVYLQMNSLKPEDTAVYYCRLASLSSGTVYWGKGTLVTVSS | % | 13 |
| Nanobody 2B02 (VHH) VHH: EVQLVESGGGLVQPGDSLRLSCAASGRILSINNMVWYRQAPGKQRELVAHITSSGSTGYADSVKGRFTISRDNAKNTFYLQMTNLNPEDTAVYYCNCWVSSDSNAPLKNYWGQGTQVTVSS | % | 46 |
| Nanobody 6B05 (VHH, also called 06B05) VHH: EVQLVESGGGLVQPGGSLRLSCAASGSIFSINTMGWYRQAPGKQRELVSTITSNLVPHYADSVQGRFTISRDNARNTVYLQMNSLKPQDTAHYYCNAWARSSGATPYTNYWGQGTLVTVSS | % | 32 |

From here, focus on the item given below.
Query (binder): Nanobody 5H01 (VHH, also called 05H01) VHH: EVQLVESGGGLVQPGGSLRLSCAASGSTLDYYAIGWFRQAPGKEREGVSCTSNSGSTYYGGSVKGRFTASRDNAKNTVYLQMNSLRPEDTAVYYCVATIGCATLGGTLDVQRYYYRGQGTQVTVSS ; field requested: cytotox assay (% inhibition), P3X63, PA103
76
